- Test system: ACHN renal
- ASSAY: NCI tumour cell line growth inhibition, 48 h; in the data active = GI50 below about 0.43 µM; inactive = the rest
Field 'call' accepts label 1 for active, label 0 for inactive

In: Recorded call for O=c1[nH]cnc2c1nnn2C1OC(CO)C(O)C1O (stereo not given) ?
Out: label 0

In: Recorded call for Cc1cccc2nc3cccc(C(=O)NCCC[N+](C)(CCCNC(=O)c4cccc5nc6cccc(C)c6nc45)Cc4c([N+](=O)[O-])ncn4C)c3nc12 ?
Out: label 0

In: Recorded call for NS(=O)(=O)c1ccc(C2C3=C(CCCC3=O)OC3=C2C(=O)c2ccccc2C3=O)cc1 (stereo not given) ?
Out: label 0

In: Recorded call for O=C(Nc1ncc(Cc2ccccc2)s1)c1ccc2c(c1)OCCCO2 ?
Out: label 0

In: Recorded call for CCCCCCCCCCCCCC[P+](CCCCCC)(CCCCCC)CCCCCC ?
Out: label 1

In: Recorded call for COc1ccc(-c2nsc3c2NC(=O)CC3c2ccc3c(c2)OCO3)cc1 (stereo not given) ?
Out: label 0

In: Recorded call for Nc1c(C(=O)c2cccc(-c3ccc[n+]([O-])c3)c2)cnn1-c1ccc(F)cc1F ?
Out: label 0

In: Recorded call for C[C@@H]1COCCN1c1nc(-c2cnc(N)cc2C(F)F)nc(N2[C@H](C)COC[C@@H]2C)n1 ?
Out: label 1

In: Recorded call for COC(=O)Nc1nc2ccc(Oc3ccc(NC(=O)Nc4cccc(Br)c4)cc3)cc2[nH]1 ?
Out: label 0

In: Recorded call for CNc1nc(C)c(-c2nc(Nc3cccc(S(N)(=O)=O)c3)ncc2F)s1 ?
Out: label 1

###

- System: U251 CNS
- ASSAY: NCI tumour cell line growth inhibition, 48 h
Record form. Attribute: TGI. Fill in for each entry.

In: Dear colleague, please send me the reported TGI for N=S(=O)(c1ccccc1)c1ccccc1[N+](=O)[O-] (stereo unspecified) when you can.
Out: > 100 µM

In: Dear colleague, please send me the reported TGI for O=C1CCC2(CC1CCSc1ccccc1)OCCO2 (stereo unspecified) when you can.
Out: > 100 µM

In: Dear colleague, please send me the reported TGI for CN(C)CCCNc1c2ccccc2nc2cccc([N+](=O)[O-])c12 when you can.
Out: 0.0143 µM

In: Dear colleague, please send me the reported TGI for C=C(CC(=O)Nc1ccc(C(=O)OC)o1)C(=O)OC when you can.
Out: > 100 µM

In: Dear colleague, please send me the reported TGI for Cc1ccc2c[c]1[Hg][CH2]COS2(=O)=O when you can.
Out: 31.3 µM

In: Dear colleague, please send me the reported TGI for O=S(=O)([O-])[O-].[Cl-].[NH2-].[NH2-].[NH2-].[NH2-].[Ru+3].c1ccc(-c2cccnc2)cc1 when you can.
Out: > 100 µM

In: Dear colleague, please send me the reported TGI for CCCCCCCCCCCCCC[P+](CCCCCC)(CCCCCC)CCCCCC when you can.
Out: 1.29 µM

In: Dear colleague, please send me the reported TGI for Cn1c(-c2ccc[se]2)ccc1-c1ccc(CO)[se]1 when you can.
Out: 15.8 µM

In: Dear colleague, please send me the reported TGI for CC(NC(=O)OCc1ccccc1)NC(=O)C(CC(=O)OC(C)(C)C)NC(=O)OC(C)(C)C (stereo unspecified) when you can.
Out: > 100 µM

In: Dear colleague, please send me the reported TGI for CC(C)(C)OC(=O)NC(Cc1ccc(O)cn1)C(N)=O (stereo unspecified) when you can.
Out: > 100 µM

In: Dear colleague, please send me the reported TGI for COc1ccccc1NC(=S)N/N=C(/C)c1ccccn1 when you can.
Out: > 100 µM

###

- Test system: MOLT-4 leukemia
- ASSAY: NCI tumour cell line growth inhibition, 48 h
MEASURE: TGI

In: Fill: TGI (MOLT-4 leukemia) for this compound O=c1[nH]c2cc3cccnc3c(Cl)c2nc1C(F)(F)F
Out: 83.2 µM

In: Fill: TGI (MOLT-4 leukemia) for this compound CC(NC1=NCCO1)c1cccc([N+](=O)[O-])c1 (centres undefined)
Out: > 100 µM

In: Fill: TGI (MOLT-4 leukemia) for this compound NC(N)=N/N=C/c1c(-c2cccs2)nc2sccn12
Out: 36.3 µM

In: Fill: TGI (MOLT-4 leukemia) for this compound Cc1cc2ccccc2n1CC(=O)N1CCCC1
Out: > 100 µM

In: Fill: TGI (MOLT-4 leukemia) for this compound C[C@H](CC[C@@H](O)C(C)(C)O)[C@H]1CC[C@@]2(C)[C@@H]3CC=C4[C@@H](CC[C@H](O)C4(C)C)[C@]3(C)C(=O)C[C@]12C
Out: > 50 µM

In: Fill: TGI (MOLT-4 leukemia) for this compound Cc1cc(NS(=O)(=O)c2ccc(NC(=O)c3cccc4c(NNc5ccc(S(=O)(=O)N=C(N)N)cc5)c5ccccc5nc34)cc2)no1
Out: 74.9 µM

In: Fill: TGI (MOLT-4 leukemia) for this compound O=C(NC1(C(=O)NNc2nnc(-c3ccccc3)c(-c3ccccc3)n2)C(c2ccccc2)C(c2ccccc2)=NN1c1ccccc1)c1ccccc1 (centres undefined)
Out: > 100 µM

In: Fill: TGI (MOLT-4 leukemia) for this compound CCOC(=O)/C(C#N)=C/c1ccc(CO)o1
Out: > 100 µM

In: Fill: TGI (MOLT-4 leukemia) for this compound CC(C)(C)n1c(=O)n(C(=O)C(Cl)(Cl)Cl)n(C(=O)C(Cl)(Cl)Cl)c1=O
Out: > 100 µM

###

- System: UACC-257 melanoma
- ASSAY: NCI tumour cell line growth inhibition, 48 h
MEASURE: TGI (µM)
Give the quantity in µM, number only.

In: Dear colleague, please send me the reported TGI for C=C1C(=O)O[C@H]2C/C(C)=C/CC/C(C)=C/CC[C@@](C)(O)[C@@H](I)C[C@@H]12 when you can.
Out: 25.5

In: Dear colleague, please send me the reported TGI for CCOC(=O)c1c2c(n(-c3ccc(OC)cc3)c1C)C(=O)C(=O)c1ccccc1-2 when you can.
Out: 1.11

In: Dear colleague, please send me the reported TGI for COc1cc2c(c(OC)c1OC)-c1ccc(NNC(=S)N(Cc3cccc(C[N+](Cc4cccc(CNC56CC7CC(CC(C7)C5)C6)c4)(Cc4cccc(CNC56CC7CC(CC(C7)C5)C6)c4)Cc4cccc(CN(C(=S)NNc5ccc6c(cc5=O)[C@@H](NC(C)=O)CCc5cc(OC)c(OC)c(OC)c5-6)C56CC7CC(CC(C7)C5)C6)c4)c3)C34CC5CC(CC(C5)C3)C4)c(=O)cc1[C@@H](NC(C)=O)CC2 (some centres not stated) when you can.
Out: 10.3

In: Dear colleague, please send me the reported TGI for O=Nc1c(-c2cccc([N+](=O)[O-])c2)nc2cnccn12 when you can.
Out: 41

In: Dear colleague, please send me the reported TGI for NC(N)=N/N=C/c1c(-c2cccs2)nc2sccn12 when you can.
Out: 37.7

In: Dear colleague, please send me the reported TGI for Cc1cc2c(cc1C)[n+](=O)c(C(=O)/C=C/c1ccc(Cl)cc1)c(C)n2[O-] when you can.
Out: 89.9

In: Dear colleague, please send me the reported TGI for Cc1ccccc1S(=O)(=O)N1[C@H](c2ccc(Cl)cc2)C(C(=O)N[C@@H](Cc2ccccc2)C(N)=O)=C[C@@H]1C(C)(C)C when you can.
Out: 17.2

In: Dear colleague, please send me the reported TGI for N#CC(C#N)=Cc1c(O)ccc2ccccc12 when you can.
Out: 32.6

###

- Tested on: XF 498 CNS
- ASSAY: NCI tumour cell line growth inhibition, 48 h
Record form. Attribute: TGI. Fill in for each entry.

In: Dear colleague, please send me the reported TGI for CNS(=O)(=O)NN(C)S(=O)(=O)c1ccc(Cl)cc1 when you can.
Out: > 100 µM

In: Dear colleague, please send me the reported TGI for N#CCCN(CCC#N)c1ccc(/C=C2\N=C(COc3ccc(Cl)cc3Cl)OC2=O)cc1 when you can.
Out: > 100 µM

In: Dear colleague, please send me the reported TGI for COC(=O)c1nc(-c2ccc3c(n2)C(=O)C(N)=C(OC)C3=O)c(N)c(-c2ccc(OC)c(OC)c2O)c1C when you can.
Out: 2.85 µM

In: Dear colleague, please send me the reported TGI for CCOC(=O)C(=O)C1C(=O)Nc2ccccc21 (stereo unspecified) when you can.
Out: > 100 µM

In: Dear colleague, please send me the reported TGI for Oc1ccc2occ3c2c1CCC3 when you can.
Out: > 100 µM

In: Dear colleague, please send me the reported TGI for O=C(O)CNS(=O)(=O)c1ccc(NC(=O)c2ccc(F)cc2)cc1 when you can.
Out: > 100 µM

###

Record form. Attribute: TGI. Fill in for each entry.
- Tested on: COLO 205 colon
- ASSAY: NCI tumour cell line growth inhibition, 48 h

In: Dear colleague, please send me the reported TGI for COc1ccc(-c2nc(-c3cc4ccccc4oc3=O)cs2)cc1 when you can.
Out: > 100 µM

In: Dear colleague, please send me the reported TGI for O=c1[nH]c(=O)n(COCc2ccccc2)c2ccc([N+](=O)[O-])cc12 when you can.
Out: > 100 µM

In: Dear colleague, please send me the reported TGI for CCOP(=O)(OCC)/C(=C\N1C(=O)CC(=O)NC1=S)C(=O)OC when you can.
Out: > 100 µM

In: Dear colleague, please send me the reported TGI for c1cc(C[S+]2CCCC2)ccc1C[S+]1CCCC1 when you can.
Out: > 100 µM

In: Dear colleague, please send me the reported TGI for O=C1C=C2CO[C@H]3OC[C@H](O)[C@@H]1[C@@H]23 when you can.
Out: 30 µM

In: Dear colleague, please send me the reported TGI for N#Cc1c(N2CCCC2)ncn(Cc2ccccc2)c1=S when you can.
Out: > 100 µM

In: Dear colleague, please send me the reported TGI for C=C1C(=O)O[C@H]2[C@H]1CC/C(CNS(=O)(=O)c1ccc3ccccc3c1)=C\CC[C@@]1(C)O[C@@H]21 when you can.
Out: 2.69 µM

In: Dear colleague, please send me the reported TGI for O=C1c2ccccc2C(=O)c2c1ccc1c2N=C(c2ccc(F)cc2)CC(c2ccc(Cl)c(Cl)c2)N1 (stereo not given) when you can.
Out: 33.4 µM

In: Dear colleague, please send me the reported TGI for COC(=O)c1nc(-c2ccc3c(n2)C(=O)C(N)=C(OC)C3=O)c(N)c(-c2ccc(OC)c(OC)c2O)c1C when you can.
Out: 3.61 µM

In: Dear colleague, please send me the reported TGI for O=C(NNc1cn[nH]c(=O)c1Cl)/C(=C/c1ccc2c(c1)OCO2)NC(=O)c1ccccc1 when you can.
Out: > 100 µM

In: Dear colleague, please send me the reported TGI for C[C@@H]1COCCN1c1nc(-c2cnc(N)cc2C(F)F)nc(N2[C@H](C)COC[C@@H]2C)n1 when you can.
Out: 12.5 µM

In: Dear colleague, please send me the reported TGI for CCN(CC)C(=S)N/N=C/c1ccccn1 when you can.
Out: > 53.9 µM

In: Dear colleague, please send me the reported TGI for CCOC(=O)C(=O)C1C(=O)Nc2ccccc21 (stereo not given) when you can.
Out: > 100 µM

In: Dear colleague, please send me the reported TGI for Nc1nc2c(c3ncccc13)C(c1ccc(Cl)c(Cl)c1)Cc1ncccc1-2 (stereo not given) when you can.
Out: 7.3 µM

In: Dear colleague, please send me the reported TGI for NC(=O)C(Br)CBr (stereo not given) when you can.
Out: 2.56 µM

In: Dear colleague, please send me the reported TGI for C[N+](C)([O-])CCCNc1c2ccccc2nc2cccc([N+](=O)[O-])c12 when you can.
Out: 0.322 µM

In: Dear colleague, please send me the reported TGI for NCCNCCCCCCNC(=O)c1cccc2cc3ccccc3nc12 when you can.
Out: 13.2 µM

In: Dear colleague, please send me the reported TGI for O=c1[nH]cnc2c1nnn2C1OC(CO)C(O)C1O (stereo not given) when you can.
Out: 9.94 µM

In: Dear colleague, please send me the reported TGI for Nc1c(C(=O)c2cccc(-c3ccc[n+]([O-])c3)c2)cnn1-c1ccc(F)cc1F when you can.
Out: > 25 µM

In: Dear colleague, please send me the reported TGI for COc1ccc(/C=C(\C(=C/c2ccc(OC)cc2)[N+](=O)[O-])[N+](=O)[O-])cc1 when you can.
Out: 21.6 µM

In: Dear colleague, please send me the reported TGI for CC1=C(SCc2ccccc2)C(=O)c2ccccc2C1=O when you can.
Out: 38.9 µM

In: Dear colleague, please send me the reported TGI for COC(=O)c1ccc(CCc2cc(O)ccc2O)cc1 when you can.
Out: 54.5 µM

In: Dear colleague, please send me the reported TGI for Cc1cn(CC2=NCCCN2)c(=O)[nH]c1=O when you can.
Out: > 100 µM

In: Dear colleague, please send me the reported TGI for CCN(CC)c1ccc(N=C2C=C(C(=O)Nc3ccc(S(C)(=O)=O)cc3)C(=O)c3ccccc32)c(C)c1 when you can.
Out: > 100 µM

In: Dear colleague, please send me the reported TGI for CC1CCC2(NC1)OC1CC3[C@@H]4CC=C5C=CCC[C@]5(C)C4CC[C@]3(C)C1C2C (stereo not given in full) when you can.
Out: 34.6 µM

In: Dear colleague, please send me the reported TGI for CN(C)c1ccc(C(=O)c2ccc(N(C)C)c(N)c2)cc1N when you can.
Out: 18.5 µM

In: Dear colleague, please send me the reported TGI for NC(c1ccccc1)(C(F)(F)F)P1(=O)OC(=O)c2ccccc2O1 (stereo not given) when you can.
Out: > 100 µM

In: Dear colleague, please send me the reported TGI for CC/C=C\C/C=C\C[C@H](O)C/C=C1/C(=O)C=C[C@H]1C/C=C\CCC(=O)OC when you can.
Out: > 8.25 µM

In: Dear colleague, please send me the reported TGI for N#Cc1c2ccccc2c2n1-c1ccccc1OC(c1ccccc1)C2=O (stereo not given) when you can.
Out: 16.4 µM

In: Dear colleague, please send me the reported TGI for CCOCC(=O)N[C@H]1CCc2cc(OC)c(OC)c(OC)c2-c2ccc(SC)c(=O)cc21 when you can.
Out: < 0.01 µM
